TARGET_SYSTEM: Beta-1 adrenergic receptor (Rattus norvegicus, UniProt P18090, W134A)
Sequence (P18090 whole entry W134A): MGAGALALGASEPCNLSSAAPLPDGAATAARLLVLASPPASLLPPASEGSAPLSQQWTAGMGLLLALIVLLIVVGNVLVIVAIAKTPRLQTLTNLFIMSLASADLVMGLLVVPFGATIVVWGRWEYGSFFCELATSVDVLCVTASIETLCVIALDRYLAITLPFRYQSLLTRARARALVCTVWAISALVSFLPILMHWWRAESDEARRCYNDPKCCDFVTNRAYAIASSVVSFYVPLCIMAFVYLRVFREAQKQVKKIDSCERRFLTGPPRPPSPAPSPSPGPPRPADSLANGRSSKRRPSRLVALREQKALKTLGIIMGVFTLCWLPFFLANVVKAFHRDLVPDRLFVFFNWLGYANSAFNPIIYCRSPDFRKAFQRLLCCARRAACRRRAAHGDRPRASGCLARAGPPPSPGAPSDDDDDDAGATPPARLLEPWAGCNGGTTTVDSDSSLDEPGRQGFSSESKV
pKd: −log10 of the molar value.

{"COMPOUND": "CC(C)(C)NCC(O)COc1cccc2[nH]c(C#N)c(I)c12 (stereo unspecified)", "TARGET_SYSTEM": "Beta-1 adrenergic receptor (Rattus norvegicus, UniProt P18090, W134A)", "pKd": 10.20}

====

pKi: −log10 of the molar value.
Record type: pKi measurement. Applies to: Beta-1 adrenergic receptor (Rattus norvegicus, UniProt P18090, S190A)

{"COMPOUND": "Cn1cc(C(F)(F)F)nc1-c1ccc(OCC(O)CNCCOc2ccc(O)c(C(N)=O)c2)cc1 (centres undefined) [CGP-20712A]", "TARGET_SYSTEM": "Beta-1 adrenergic receptor (Rattus norvegicus, UniProt P18090, S190A)", "pKi": 6.10}
{"COMPOUND": "CCOCCOc1ccc(OC[C@@H](O)CNCCc2ccc(OC)c(OC)c2)cc1", "TARGET_SYSTEM": "Beta-1 adrenergic receptor (Rattus norvegicus, UniProt P18090, S190A)", "pKi": 4.90}
{"COMPOUND": "N#Cc1cc(OCCOCC2CC2)ccc1OCC(O)CNCCNC(=O)Nc1ccc(O)cc1 (centres undefined)", "TARGET_SYSTEM": "Beta-1 adrenergic receptor (Rattus norvegicus, UniProt P18090, S190A)", "pKi": 7.00}
{"COMPOUND": "CC(C)(C)NCC(O)COc1cccc2[nH]c(C#N)cc12 (centres undefined)", "TARGET_SYSTEM": "Beta-1 adrenergic receptor (Rattus norvegicus, UniProt P18090, S190A)", "pKi": 9.50}
